Tested on: AGE formation (bovine serum albumin, methylglyoxal)
Experiment: In vitro antiglycation assay (BSA-methylglyoxal, AGE fluorescence)
Assay type: biochemical
Settings: 37 °C, 9 days; mean ± SEM
Method: Methylglyoxal (14 mM), sodium azide (30 mM) in 0.1 M phosphate buffer, bovine serum albumin (10 mg/mL), and various concentrations of the compounds (prepared in 10% DMSO) were incubated under sterile conditions at 37 °C for 9 days. […] Standard rutin was used as a positive control and percent inhibition of AGE formation in the test sample versus control was calculated by using the following relation: % Inhibition = ⦋1−Fluorescence of test sample/Fluorescence of the control⦌×100

molecule	IC50 (µM)
C[C@@H]1O[C@@H](OC[C@H]2O[C@@H](Oc3c(-c4ccc(O)c(O)c4)oc4cc(O)cc(O)c4c3=O)[C@H](O)[C@@H](O)[C@@H]2O)[C@H](O)[C@H](O)[C@H]1O [Rutin, rutin, reference compound]	289

---

molecular target: α-glucosidase (Saccharomyces cerevisiae); test: biochemical
Sequence (P53341 whole entry): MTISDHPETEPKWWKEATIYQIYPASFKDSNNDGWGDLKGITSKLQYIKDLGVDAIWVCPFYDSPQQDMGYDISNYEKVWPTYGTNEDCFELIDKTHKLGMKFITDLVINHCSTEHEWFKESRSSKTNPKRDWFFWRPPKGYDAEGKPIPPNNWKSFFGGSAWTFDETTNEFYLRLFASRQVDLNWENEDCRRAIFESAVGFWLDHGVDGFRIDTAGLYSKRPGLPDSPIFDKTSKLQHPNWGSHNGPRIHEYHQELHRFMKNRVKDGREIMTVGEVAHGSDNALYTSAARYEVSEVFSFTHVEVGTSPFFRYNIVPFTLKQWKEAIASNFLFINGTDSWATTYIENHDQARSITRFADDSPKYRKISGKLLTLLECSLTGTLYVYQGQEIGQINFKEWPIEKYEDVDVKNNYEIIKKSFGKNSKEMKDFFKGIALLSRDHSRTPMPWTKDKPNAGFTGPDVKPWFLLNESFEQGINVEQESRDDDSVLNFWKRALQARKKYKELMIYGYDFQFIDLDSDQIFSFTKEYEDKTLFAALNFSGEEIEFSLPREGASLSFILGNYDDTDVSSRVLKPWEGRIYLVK
Items are presented alongside their recorded IC50.

molecule	u	IC50
CC1=C(C)C(=O)O[C@@H]([C@@](C)(O)[C@@]2(O)CC[C@@]3(O)[C@@H]4CC=C5CC=CC(=O)[C@]5(C)[C@H]4CC[C@]23C)C1 [Compound 2, withanolid J]	µM	683
CC1=C(C)C(=O)O[C@@H]([C@@](C)(O)[C@@]2(O)CC[C@@]3(O)[C@@H]4CCC5=CC=CC(=O)[C@]5(C)[C@H]4CC[C@]23C)C1 [Compound 4, withaperuvin C]	µM	407
CC1=C(CO)C(=O)O[C@@H]([C@@](C)(O)[C@H]2CC[C@@]3(O)[C@@H]4CC=C5C=CCC(=O)[C@]5(C)[C@H]4CC[C@]23C)C1 [Compound 5, 27-hydroxywithanolide I]	µM	66.7

The measurements presented in this section are drawn from paper PMC7464911.
